Target: human RIP1 kinase domain (2-375) (Homo sapiens (Human))
Sequence (Q13546 2-375): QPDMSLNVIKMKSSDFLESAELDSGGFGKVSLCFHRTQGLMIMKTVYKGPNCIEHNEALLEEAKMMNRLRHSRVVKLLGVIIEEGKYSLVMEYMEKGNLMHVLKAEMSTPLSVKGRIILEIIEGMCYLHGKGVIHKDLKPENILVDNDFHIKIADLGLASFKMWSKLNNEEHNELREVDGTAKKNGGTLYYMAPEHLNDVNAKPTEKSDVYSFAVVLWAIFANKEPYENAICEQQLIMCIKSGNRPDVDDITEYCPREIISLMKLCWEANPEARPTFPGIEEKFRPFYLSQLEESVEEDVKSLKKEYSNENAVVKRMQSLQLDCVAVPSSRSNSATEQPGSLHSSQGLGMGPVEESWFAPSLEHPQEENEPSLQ
Test: biochemical
Type: biochemical
Details: human RIP1 kinase domain (2-375), Transcreener ADP assay, 50 uM ATP, 2 hours incubation; read-out: RIP1 Ki
pKi: −log10 of the molar value.
recorded endpoint: pKi

[[record]]
compound = "CN1C(=O)C(NC(=O)c2ncn(CC3CCC(F)(F)CC3)n2)CCn2nc(C3CC3)cc21 (stereo not shown)"
system = "human RIP1 kinase domain (2-375) (Homo sapiens (Human))"
recorded_endpoint = "pKi"
measured_value = 6.38

[[record]]
compound = "Cc1nn2c(c1C)N(C)C(=O)[C@@H](NC(=O)c1ncn(Cc3ccc(F)c(F)c3)n1)CC2"
system = "human RIP1 kinase domain (2-375) (Homo sapiens (Human))"
recorded_endpoint = "pKi"
measured_value = 7.33

[[record]]
compound = "CC[C@@]1(C)OCc2cnc(C(=O)NC3CCn4cnc(C)c4N(C)C3=O)cc21 (stereo partly shown)"
system = "human RIP1 kinase domain (2-375) (Homo sapiens (Human))"
recorded_endpoint = "pKi"
measured_value = 6.07

[[record]]
compound = "CN1C(=O)[C@@H](NC(=O)c2ncn(Cc3c(F)cccc3F)n2)CCn2nc(C3CC3)cc21"
system = "human RIP1 kinase domain (2-375) (Homo sapiens (Human))"
recorded_endpoint = "pKi"
measured_value = 7.57

[[record]]
compound = "CC(C1CCn2nnc(C(=O)N[C@H]3COc4ccccc4N(C)C3=O)c2C1)C(F)(F)F (stereo partly shown)"
system = "human RIP1 kinase domain (2-375) (Homo sapiens (Human))"
recorded_endpoint = "pKi"
measured_value = 7.15

[[record]]
compound = "CN1C(=O)[C@@H](NC(=O)c2ncn(Cc3cccc(F)c3F)n2)CCn2nc([C@@H]3CC3(F)F)cc21"
system = "human RIP1 kinase domain (2-375) (Homo sapiens (Human))"
recorded_endpoint = "pKi"
measured_value = 7.79

[[record]]
compound = "CN1C(=O)C(NC(=O)c2n[nH]c(Cc3ccccc3)n2)CCn2cncc21 (stereo not shown)"
system = "human RIP1 kinase domain (2-375) (Homo sapiens (Human))"
recorded_endpoint = "pKi"
measured_value = 7.14

